Reference source for all entries: patent US9556109B1

Degree of Ionization values for the molecules below.
assay: Isothermal titration calorimetry: critical aggregation concentration and degree of ionization; format: physicochemical; conditions: 37° C.
# respond with the number and nothing more

Example cases with answers are listed next.
Request: Note Degree of Ionization for the molecule shown: CCCCCCCCCCCC[N+](C)(C)Cc1cc(C[N+](C)(C)CCO)cc(C[N+](C)(C)CCCCCCCCCCCC)c1.[Br-].[Br-].[Br-] [Compound 3]
Response: 0.20

Request: Note Degree of Ionization for the molecule shown: CCCCCCCCCCCCCC[N+](C)(C)Cc1cc(C[N+](C)(C)CCO)cc(C[N+](C)(C)CCCCCCCCCCCCCC)c1.[Br-].[Br-].[Br-] [Compound 4]
Response: 0.18

Would you kindly look at the next entry?
Request: Note Degree of Ionization for the molecule shown: CCCCCCCCCCCCCCCC[N+](C)(C)Cc1cc(C[N+](C)(C)CCO)cc(C[N+](C)(C)CCCCCCCCCCCCCCCC)c1.[Br-].[Br-].[Br-] [Compound 5]
Response: 0.15
